tested on: Candida albicans; experiment: Antifungal activity against Candida albicans after 48 hrs by broth dilution technique; assay type: functional
Each entry below lists one item and its recorded MFC value.

Compound Smiles | Target System | Quantity Unit | MFC
COC1=CC(=O)C[C@@H](C)[C@]12Oc1c(Cl)c(OC)cc(OC)c1C2=O | Candida albicans | µg/mL | 12.5
CCCCC/C=C\CC[C@H](O)CCCCCCCC(=O)N(C(=O)NC1CCCCC1)C1CCCCC1 | Candida albicans | µg/mL | 12.5
CCCCCCCCCCCCCCCC(=O)Nc1ccccc1O | Candida albicans | µg/mL | 100
CCCCC/C=C\CC[C@H](O)CCCCCCCC(=O)Nc1ccccc1O | Candida albicans | µg/mL | 25
C=CCCCCCCCCC(=O)Nc1ccccc1O | Candida albicans | µg/mL | 100
CCCCCC[C@@H](O)C/C=C\CCCCCCCC(=O)Nc1ccccc1O | Candida albicans | µg/mL | 50
